- subject.of.test: STK3 Catalytic domain+SARAH (Homo sapiens, UniProt Q13188)
- Construct: for 8, we also made a longer version containing one or more additional domains; His-tag; made in house; host or cells: Escherichia coli
- Sequence (Q13188 whole entry, the tested form may be a part): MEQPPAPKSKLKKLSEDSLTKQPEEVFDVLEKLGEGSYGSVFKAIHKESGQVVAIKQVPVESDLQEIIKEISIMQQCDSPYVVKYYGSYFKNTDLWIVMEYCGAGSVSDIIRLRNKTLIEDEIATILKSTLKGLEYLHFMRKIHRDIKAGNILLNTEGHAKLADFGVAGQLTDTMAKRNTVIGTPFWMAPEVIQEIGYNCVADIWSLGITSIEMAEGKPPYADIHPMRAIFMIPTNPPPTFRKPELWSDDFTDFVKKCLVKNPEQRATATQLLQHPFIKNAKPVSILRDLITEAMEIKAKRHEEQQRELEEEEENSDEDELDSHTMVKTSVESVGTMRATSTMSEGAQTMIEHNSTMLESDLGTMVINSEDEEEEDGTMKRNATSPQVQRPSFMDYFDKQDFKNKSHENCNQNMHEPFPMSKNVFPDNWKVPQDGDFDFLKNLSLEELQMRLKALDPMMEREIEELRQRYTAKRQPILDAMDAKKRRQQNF
- procedure.summary: Differential Scanning Fluorimetry (DSF) Tm shift
- Assay type: binding
- conditions: 2 µM protein, 10 µM inhibitor, average of 3 experiments, each in duplicate
Please provide measured Melting temperature (Tm) shift for the entries that follow.
Numbers only, in degrees Celcius.

Please review the following examples before continuing.
> print(dat)
                                   compound              parameter.measured  value.observed
1       O=C1NC(=O)C(=Cc2cccc(C(F)(F)F)c2)S1  Melting temperature (Tm) shift             0.4
2  CCN(CC)CCNC(=O)c1c(C)[nH]c(/C=C2\C(=O)Nc3ccc(Cl)cc32)c1C  Melting temperature (Tm) shift             3.8
3              Brc1c(Br)c(Br)c2n[nH]nc2c1Br  Melting temperature (Tm) shift             0.4

I'm hoping you can list Melting temperature (Tm) shift for every compound here, please.
1. O=C(c1cc2cc(O)ccc2[nH]1)c1cc2cc(O)ccc2[nH]1
2. COc1cc(Nc2ncc3ccn(-c4cccc(CCC#N)c4)c3n2)cc(OC)c1OC
3. O=C1NC(=O)C(c2c[nH]c3ccccc23)=C1c1c[nH]c2ccccc12 [Bisindolylmaleimide IV]
4. O=C1Nc2ccccc2C1=C1Nc2ccccc2C1=NOCCC(O)CO (centres unmarked)
5. O=C1NC(=O)C(c2cn(CCCn3ccnc3)c3ccccc23)=C1Nc1ccccc1

// result
[2.3, 4.3, 2.0, 3.5, 1.7]
